Molecular target: SARS-CoV-2 3CLpro (Severe acute respiratory syndrome coronavirus 2, UniProt P0DTD1)
Assay: biochemical
Format: biochemical
Settings: 4 h, sheet LOPAC_screen_w_protease; primary screen of LOPAC1280 at 5 µM with protease; mean of the two replicates; read-out: mean
Where a name gives a salt, the structure may show the parent alone.
outcomeMeasure: inhibition at 5 µM (%)
Write the value in % as a bare number.

# annotated cases, reported inhibition at 5 µM shown
C=CCN1CC[C@]23c4c5ccc(O)c4O[C@H]2C(=O)CC[C@@]3(O)[C@H]1C5 [Naloxone hydrochloride] = 4
CCn1cc(C(=O)O)c(=O)c2ccc(Cc3ccccc3)nc21 = 3.23
COc1cc(C(=O)OCCCN2CCCN(CCCOC(=O)c3cc(OC)c(OC)c(OC)c3)CC2)cc(OC)c1OC [Dilazep hydrochloride] = 3.29
CC(N)C(=O)OC(C)(C)Cc1ccc(Cl)cc1 (stereo not shown) [Alaproclate hydrochloride] = 3.56

The observed inhibition at 5 µM for C=C1C(=O)O[C@H]2[C@H]1CC/C(C)=C/CC[C@@]1(C)O[C@@H]21 [Parthenolide] when tested with SARS-CoV-2 3CLpro (Severe acute respiratory syndrome coronavirus 2, UniProt P0DTD1) stands at 3.43

Entry COc1cccc2c1[C@@H]1CN(CCCCn3c(=O)[nH]c4c(sc5ncc(-c6ccccc6)nc54)c3=O)C[C@@H]1CO2 [Fiduxosin hydrochloride] , tested on SARS-CoV-2 3CLpro (Severe acute respiratory syndrome coronavirus 2, UniProt P0DTD1), has a reported inhibition at 5 µM of 3.27

Lab entry: SARS-CoV-2 3CLpro (Severe acute respiratory syndrome coronavirus 2, UniProt P0DTD1) assay, compound CCn1c(=O)c2nc(-c3ccccc3)[nH]c2n(CC)c1=O , inhibition at 5 µM = 3.47
